Test system: NCI-H460
Experiment: NCI tumour cell line growth inhibition, 48 h
Activity calls are given as the source filed them. Rule as the data show it: active = GI50 up to about 1.1 µM and inactive = higher.
Outcome codes: label 1 = active, label 0 = inactive

{"molecule": "CC(=O)N1CCOC12N=NC(C)(C)O2 (configuration not stated)", "group": "label 0"}
{"molecule": "CCOC(=O)/C(C#N)=C1/SC(C(=O)N/N=C/c2ccc(OC)cc2)=C(N)N1c1ccccc1", "group": "label 0"}
{"molecule": "O=[N+]([O-])c1cc(Cl)ccc1S(=O)(=O)c1cc(Cl)cc2c1NCCC2", "group": "label 0"}
{"molecule": "N#Cc1c(N2CCCC2)ncn(Cc2ccccc2)c1=O", "group": "label 0"}
{"molecule": "COP1(=O)OCc2cnccc2O1 (configuration not stated)", "group": "label 0"}
{"molecule": "Cc1c(C)c2c(c(N)c1C#N)C(=O)N(O)C2=O", "group": "label 0"}
{"molecule": "Cc1cc(C)c2c(c1C)CN1CN2Cc2c(C)c(C)cc(C)c21", "group": "label 0"}
{"molecule": "Cc1cc(C)nc(NS(=O)(=O)c2ccc(NC(=O)c3cccc4cc5ccccc5nc34)cc2)n1", "group": "label 0"}
{"molecule": "CCCCCCCCCC[C@H](O)[C@H](O)CC[C@@H](O)[C@H]1CC[C@@H]([C@H]2CC[C@H](CCCCCCC[C@@H](O)CC3=C[C@H](C)OC3=O)O2)O1", "group": "label 0"}
{"molecule": "N#C/C(=C\\NC(=S)c1ccncc1)c1nc2ccccc2s1", "group": "label 0"}
{"molecule": "CCOC(=O)Cn1nnc2ccc(Nc3nc4ccccc4nc3C(=O)OCC)cc21", "group": "label 0"}
{"molecule": "CC(=O)O[C@H]1C(=O)[C@@]2(C)[C@H]([C@H](OC(=O)c3ccccc3)[C@]3(O)C[C@H](OC(=O)[C@H](O)[C@@H](NC(=O)c4ccccc4)C4CCCCC4)C(C)=C1C3(C)C)[C@]1(OC(C)=O)CO[C@@H]1C[C@@H]2O", "group": "label 1"}
{"molecule": "CCCCCCc1cc2c(C)c(C)c(=O)oc2cc1OCCCOc1cc2oc(=O)c(C)c(C)c2cc1CCCCCC", "group": "label 0"}
{"molecule": "Cc1ccc(NCCN(C)C)c2c(=O)c3cc(O)ccc3oc12", "group": "label 1"}
{"molecule": "CCCCc1ccc(N2C(=O)c3cccnc3S2(=O)=O)cc1", "group": "label 0"}
{"molecule": "COc1cc2c(cc1OCCCOc1cc(-c3ccc(F)cc3)nc(C)n1)N=C[C@@H]1CCCN1C2=O", "group": "label 0"}
{"molecule": "Cc1c2c(cc3c1[nH]c1ccccc13)C=NCC2", "group": "label 0"}
{"molecule": "COC(C/C(=C/CO[Si](C(C)C)(C(C)C)C(C)C)C(=O)N(COCC[Si](C)(C)C)c1ccccc1I)OC", "group": "label 0"}
{"molecule": "COc1ccc([C@H]2[C@H]3COC(=O)[C@H]3C(C#N)=C3Sc4ccccc4N32)cc1", "group": "label 0"}
{"molecule": "CC(=O)OC[C@@H](COC(=O)/C=C/c1ccc(O)cc1)OC1OC(CO)C(O)C(O)C1O (some centres not stated)", "group": "label 0"}
{"molecule": "CCC(c1ccc2cc(O)ccc2c1)C(C)(C)C(=O)O (configuration not stated)", "group": "label 0"}
{"molecule": "O=C1c2ccccc2C(=O)c2c(/C=C\\N3CCCCC3)ccnc21", "group": "label 0"}
{"molecule": "N#CCCC1(CCC#N)CCCCCCCCC(CCC#N)(CCC#N)C(=O)C1=O", "group": "label 0"}
{"molecule": "COc1ccc(C2N(c3ccc(F)c([N+](=O)[O-])c3)C(=O)N3C(c4ccc(OC)cc4)N(c4ccc(F)c([N+](=O)[O-])c4)C(=O)N23)cc1 (configuration not stated)", "group": "label 0"}
{"molecule": "COc1ccc(/N=C2\\C(=O)C3=C(OC(C)(C)CC3)c3ccccc32)cc1", "group": "label 0"}
{"molecule": "C/N=c1/ssc(=S)n1C(C)C", "group": "label 0"}
{"molecule": "COc1cc([C@@H]2c3cc4c(cc3[C@@H](NC(=O)c3ccccc3)C3COC(=O)[C@@H]32)OCO4)cc(OC)c1O (some centres not stated)", "group": "label 1"}
{"molecule": "CN1C(=O)[C@@]2(C=CC3(CC2)OCCO3)c2ccccc21", "group": "label 0"}
{"molecule": "C=C1C(C(O)C[C@H](C)C2O[C@@]3(CCCCO3)CCC2C)O[C@@H]2CCC3(CCC(/C=C/[C@@H](C)C4CC(C)=CC5(O4)O[C@H](C[C@](C)(O)C(=O)O)CCC5O)O3)OC2[C@@H]1O (some centres not stated)", "group": "label 1"}
{"molecule": "N/N=C(\\c1nc2ccc(Cl)cc2nc1O)C(O)c1ccc(Cl)c(Cl)c1 (configuration not stated)", "group": "label 0"}
{"molecule": "CC#CC1/C(=C\\C(=O)OC)CCCC1O (configuration not stated)", "group": "label 0"}
{"molecule": "CN(C)CCNC(=O)c1cccc2cc3ccc4ccccc4c3nc12", "group": "label 1"}
{"molecule": "Cc1c(/C=N\\NC(=S)N(C)CCN(C)C(=S)N/N=C\\c2c(C)n(C)n(-c3ccccc3)c2=O)c(=O)n(-c2ccccc2)n1C", "group": "label 0"}
{"molecule": "O=C(N/C(=C\\c1cccc([N+](=O)[O-])c1)c1nc2c3c(ccc2[nH]1)C(=O)c1ccccc1C3=O)c1ccccc1", "group": "label 0"}
{"molecule": "O=C([O-])C1([n+]2c(-c3ccccc3)cc(-c3ccccc3)cc2-c2ccccc2)CC1", "group": "label 0"}
{"molecule": "CC(=O)NNc1nc(C)c(C(/C=C/c2ccc3c(c2)OCO3)=N/NC(=O)c2ccncc2)s1", "group": "label 0"}
{"molecule": "COC(=O)c1c(O)ccc2c1c1c(n2Cc2ccc(Cl)cc2Cl)C(=O)c2ccccc2C1=O", "group": "label 0"}

* * *

Test system: OVCAR-4
Assay: NCI tumour cell line growth inhibition, 48 h
The source made the active and inactive calls. Cut-off read from the data, not from the text of the source: active = GI50 up to about 1.1 µM and inactive = higher.

{"compound": "N#CC(NNC(=O)c1ccccc1O)c1cccc(O)c1 (stereo unspecified)", "GI50": "3.36 µM (inactive)"}
{"compound": "CC(=O)O[C@H]1C(=O)[C@@]2(C)C(C(OC(=O)c3ccccc3)[C@]3(O)CC(OC(=O)[C@H](OC(=O)CCC(=O)O)C(NC(=O)c4ccccc4)c4ccccc4)C(C)=C1C3(C)C)C1(OC(C)=O)COC1C[C@@H]2OC(=O)CCC(=O)O (stereo partly specified)", "GI50": "> 50.6 µM (inactive)"}
{"compound": "O=c1/c(=C/c2ccco2)sc2nc3ccccc3n12", "GI50": "> 10 µM (inactive)"}
{"compound": "COc1cc2c(c3c1c(=O)c1ccccc1n3C)C=C([N+](=O)[O-])C(C)(C)O2", "GI50": "> 100 µM (inactive)"}
{"compound": "COC(=O)c1c(O)ccc2c1c1c(n2Cc2ccc(Cl)cc2Cl)C(=O)c2ccccc2C1=O", "GI50": "1.95 µM (inactive)"}
{"compound": "O=C(Oc1ccccc1)c1cc2cc(CCl)ccc2oc1=O", "GI50": "24.8 µM (inactive)"}

* * *

Test system: CCRF-CEM
Experiment: NCI tumour cell line growth inhibition, 48 h
The source made the active and inactive calls. Cut-off read from the data, not from the text of the source: active = GI50 up to about 1.1 µM and inactive = higher.

{"compound": "O=C(Cc1ccccc1)NCCCN(CCCCN(CCCNC(=O)Cc1ccccc1)C(=O)OCc1ccccc1)C(=O)OCc1ccccc1", "target.under.test": "CCRF-CEM", "GI50": "> 20.3 µM (inactive)"}
{"compound": "COC1C=COC2(C)Oc3c(C)c(O)c4c(O)c(c(C5SCCS5)c(O)c4c3C2=O)NC(=O)C(C)=C/C=C\\C(C)C2OC(C)(C)OC(C2C)C(C)C(OC(C)=O)C1C (stereo not given)", "target.under.test": "CCRF-CEM", "GI50": "5.86 µM (inactive)"}
{"compound": "O=c1[nH]c2ccccc2nc1CBr", "target.under.test": "CCRF-CEM", "GI50": "0.399 µM (active)"}
{"compound": "COc1cc2nc3n(c(=O)c2cc1OC)CCCCC3", "target.under.test": "CCRF-CEM", "GI50": "94.2 µM (inactive)"}
{"compound": "CC(C)(C)CN1[C@@H]2CCCC[C@H]2N(CC(C)(C)C)P1(=O)Cc1ccccc1", "target.under.test": "CCRF-CEM", "GI50": "11 µM (inactive)"}

* * *

Tested on: CAKI-1
Assay: NCI tumour cell line growth inhibition, 48 h
Calls of active or inactive are those of the source. Rule as the data show it: active = GI50 up to about 1.1 µM and inactive = higher.

{"compound": "NC(=O)COc1ccc(Br)cc1Br", "GI50": "> 100 µM (inactive)"}
{"compound": "Cn1cc(NC(=O)c2cc(NC(=O)CCCCCCC(=O)Nc3cc(C(=O)Nc4cc(C(=O)NCCC(=N)N)n(C)c4)n(C)c3)cn2C)cc1C(=O)NCCC(=N)N", "GI50": "11 µM (inactive)"}
{"compound": "Cc1ccc([N+](=O)[O-])cc1NC(=O)C(=O)C1CCC2=C(Sc3ccccc3N2)C1=O (stereo not given)", "GI50": "52 µM (inactive)"}
{"compound": "CCOc1ccc(/C=C2/C(=O)N/C(=N\\C(C)=O)N2C)cc1", "GI50": "> 100 µM (inactive)"}
{"compound": "COc1ccc(OC)c(/C=C/c2cnnc3ccccc23)c1", "GI50": "4.61 µM (inactive)"}

Origin of values: ChEMBL document CHEMBL1201862
